The following compounds each carry a recorded Ki for Carbonic anhydrase 9 (Homo sapiens).
property.measured: Ki (nM)

Reference set (2 entries):
>  <compound>
CN1CCN(C(=O)c2ccc(S(N)(=O)=O)cc2)[C@H](CCO)C1

>  <Ki (nM)>
24.9

$$$$
>  <compound>
NS(=O)(=O)c1ccc(C(=O)N2CCN[C@H](CCO)C2)cc1

>  <Ki (nM)>
53.3

$$$$

[1] NS(=O)(=O)c1ccc(C(=O)N2CCN(Cc3ccccc3)C(CCO)C2)cc1 (racemic)
[2] CN1CCN(C(=O)c2ccc(S(N)(=O)=O)cc2)C[C@H]1CCO
INPUT: Could you check which of 1 and 2 has a smaller value for Ki? Choose, then provide that item's label.
OUTPUT: 2
